Provide the recorded viscosity for the entries that follow.
- Study Conditions: 328.15 K; 101.33 kPa; Liquid; Cone and plate viscometry
Report only the number, with the unit mPa·s understood.

Report viscosity, nothing else, for this compound: CCCC[P+](CC)(CC)CC.Cc1ncc([N+](=O)[O-])[n-]1 [butyltriethylphosphonium 2-methyl-5-nitroimidazolide]
72

For CCC=Cn1cc[n+](C)c1C.O=[N+]([O-])c1cn[n-]c1 [1-but-1-enyl-2,3-dimethylimidazolium 4-nitropyrazolide] , write its viscosity.
77

# return recorded viscosity for input CCCCCCCCCC[P+](CC)(CC)CC.O=[N+]([O-])c1cn[n-]c1 [decyltriethylphosphonium 4-nitropyrazolide]
66

Supply reported viscosity belonging to this compound: CCCCCCCCCCCCCC[P+](CCCCCC)(CCCCCC)CCCCCC.Clc1nc[n-]c1Cl [trihexyl(tetradecyl)phosphonium 4,5-dichloroimidazolide]
144

For the compound CCCCCCCC[P+](CC)(CC)CC.Cc1ncc([N+](=O)[O-])[n-]1 [triethyloctylphosphonium 2-methyl-5-nitroimidazolide] , give its reported viscosity.
109

Give the reported viscosity for this compound. CCCCCCn1cc[n+](C)c1.O=[N+]([O-])c1cn[n-]c1 [1-hexyl-3-methylimidazolium 4-nitropyrazolide]
63

* * *

Task for the reader: assign each of the following compounds its reported viscosity.
- Study Conditions: 283.15 K; 101.33 kPa; Liquid; Cone and plate viscometry
All answers are understood in mPa·s, so give the number only.

Please report viscosity for the following compound: CCCC[S+]1CCCCC1.O=S(=O)([N-]S(=O)(=O)C(F)(F)F)C(F)(F)F [1-butylthianium bis(trifluoromethylsulfonyl)imide]
279

Supply recorded viscosity for CCCCCCCCCCCCCC[P+](CCCCCC)(CCCCCC)CCCCCC.Cc1ncc([N+](=O)[O-])[n-]1 [trihexyl(tetradecyl)phosphonium 2-methyl-5-nitroimidazolide] here.
3730

// fetch viscosity given entry "CC[P+](CC)(CC)COCCOC.O=S(=O)([N-]S(=O)(=O)C(F)(F)F)C(F)(F)F"
65

Specify reported viscosity for the compound shown: CCCCCCCC[P+](CC)(CC)CC.Cc1ncc([N+](=O)[O-])[n-]1 [triethyloctylphosphonium 2-methyl-5-nitroimidazolide]
2280

Consider the compound CCCCCCCC[P+](CC)(CC)CC.O=[N+]([O-])c1c[n-]cn1 [triethyloctylphosphonium 4-nitroimidazolide] . State its measured viscosity.
804

Quickly give me recorded viscosity for "CCCCCCCCCCCCCC[P+](CCCCCC)(CCCCCC)CCCCCC.O=S(=O)([N-]S(=O)(=O)C(F)(F)F)C(F)(F)F"
841

* * *

Task for the reader: assign each of the following molecules its reported mass density.
- Study Conditions: 338.15 K; 101.33 kPa; Liquid; Vibrating tube method
Write it as a number; the unit kg/m3 goes unstated.

Tell us which mass density value is on record for "CCCC[S+]1CCCC1.O=S(=O)([N-]S(=O)(=O)C(F)(F)F)C(F)(F)F"
1418.2

Determine from records and report mass density for "CCCCCCSC(N(C)C)=[N+](C)C.O=S(=O)([N-]S(=O)(=O)C(F)(F)F)C(F)(F)F"
1304.2

Return value of mass density for input CCCC[P+](CC)(CC)CC.O=[N+]([O-])c1cn[n-]c1 [butyltriethylphosphonium 4-nitropyrazolide] , no commentary.
1054.3

Kindly indicate its recorded mass density. Item: CCCCCCC[P+](CC)(CC)CC.O=[N+]([O-])c1cn[n-]c1 [triethylheptylphosphonium 4-nitropyrazolide]
1014.5
